The values you see were collected from PubChem BioAssay AID330.

- Tested on: P388 leukemia ip, CD2F1 mice, survival T/C
- test-protocol: NCI In Vivo Anticancer Drug Screen. Data for tumor model P388 Leukemia (intraperitoneal) in CD2F1 (CDF1) mice
- applied-conditions: endpoint: median survival time; dose: 50.0 mg/kg/injection; schedule: Q01DX005 (ip); vehicle: Klucel (hydroxypropylcellulose) (HPC); higher = longer survival
Inconclusive results and toxic doses are left out.
readout: T/C

Some compounds with recorded T/C:
Sure, the documented T/C for Nc1cccc(C(=O)Nc2ccc3c(O)c(N=Nc4ccccc4)c(S(=O)(=O)O)cc3c2)c1 is 103 % of control

Sure, the documented T/C for CC1=C(c2ccccc2)C2(c3ccccc3)[N-][n+]3c(ccc4ccccc43)C2(C)C1=O (configuration not stated) is 97 % of control

Sure, the documented T/C for CC1(C)Cc2c([nH]c3ccccc3c2=O)-c2ccccc21 is 96 % of control

Sure, the documented T/C for COc1cc(C(O)(CCN2CCOCC2)c2ccc3c(c2)OCO3)cc(OC)c1OC (configuration not stated) is 91 % of control

Sure, the documented T/C for Cc1c(CCNC=O)ccc2c1[nH]c1ccccc12 is 95 % of control

Sure, the documented T/C for Nc1nc(-c2ccccc2)c(CCCNc2ccc(C(=O)NC(CCC(=O)O)C(=O)O)cc2)c(=O)[nH]1 (configuration not stated) is 102 % of control

Sure, the documented T/C for Cn1cccc1C1NC(=O)C(c2cccn2C)NC1=O (configuration not stated) is 95 % of control

Sure, the documented T/C for Cc1nc2ccccc2c(N)c1-c1cc(C)c2c(C)nc3ccccc3c2n1 is 87 % of control

Next:
Sure, the documented T/C for COC(=O)/C=C(\C=C/C(=O)O)C(=O)O is 104 % of control

Sure, the documented T/C for CCN1CCC(Nc2ccnc3cc(Cl)ccc23)CC1 is 99 % of control

Sure, the documented T/C for NC(=NCc1ccc2c(c1)OCO2)N[N+](=O)[O-] is 104 % of control

Sure, the documented T/C for COC(=O)c1cc(=O)n(C)[nH]1 is 104 % of control

Sure, the documented T/C for Cc1cccc(Nc2nc(C)nc3[nH]c(CC(C)C)c(C)c23)c1 is 91 % of control

Sure, the documented T/C for CC(C)CC(NC1=CC(=O)N(c2ccccc2)C1c1ccccc1)c1nc2ccccc2[nH]1 (configuration not stated) is 99 % of control

---

- Test system: P388 leukemia ip, CD2F1 mice, survival T/C
- test-protocol: NCI In Vivo Anticancer Drug Screen. Data for tumor model P388 Leukemia (intraperitoneal) in CD2F1 (CDF1) mice
- applied-conditions: endpoint: median survival time; dose: 100.0 mg/kg/injection; schedule: Q04DX003 (ip); vehicle: Klucel (hydroxypropylcellulose) (HPC); higher = longer survival
Inconclusive results and toxic doses are left out.
readout: T/C

Sure, the documented T/C for CCC1C(=O)OCCOCCOCCOCCOC1=O is 106 % of control

Next:
Sure, the documented T/C for Cc1ccc2[nH]c(C)c(C(=O)c3cccnc3)c2c1 is 92 % of control

Sure, the documented T/C for NC(=S)N/N=C\C=N\Nc1ccccc1 is 100 % of control

Sure, the documented T/C for S=P12OCCC(CO1)O2 (stereo not given) is 100 % of control

Sure, the documented T/C for O=C(c1ccccc1)C(c1ccccc1)n1ncc2c1CCC2 (stereo not given) is 105 % of control

---

- Tested on: P388 leukemia ip, CD2F1 mice, survival T/C
- test-protocol: NCI In Vivo Anticancer Drug Screen. Data for tumor model P388 Leukemia (intraperitoneal) in CD2F1 (CDF1) mice
- applied-conditions: endpoint: median survival time; dose: 120.0 mg/kg/injection; schedule: Q01DX005 (ip); vehicle: saline with Tween-80; higher = longer survival
Toxic doses and inconclusive results are not listed.
readout: T/C

Some compounds with recorded T/C:
Sure, the documented T/C for COC(=O)c1cc2nc(C(C)C)n(Cc3ccccc3)c2cc1C(=O)OC is 92 % of control

Sure, the documented T/C for CCOc1ccc(C(C[N+](=O)[O-])Sc2ccccc2N)cc1 (stereo not drawn) is 106 % of control

Sure, the documented T/C for CCOC(=O)c1c(Cl)c(CC)c(N=[N+]=[N-])n2c1nc1ccccc12 is 101 % of control

Next:
Sure, the documented T/C for CC(=O)c1cc(Cl)ccc1OCC(O)CNc1ccc(Cl)cc1C(=O)c1ccccc1 (stereo not drawn) is 92 % of control

Sure, the documented T/C for COC(=O)C1CCC(=O)N1Cc1cccs1 (stereo not drawn) is 104 % of control

Sure, the documented T/C for O=C(CCC(=O)Nc1cc(Cl)ccc1Cl)CC(=O)c1ccc([N+](=O)[O-])cc1 is 100 % of control

Sure, the documented T/C for CC(=O)Nc1ccc(S(=O)(=O)N/N=C/c2cc([N+](=O)[O-])cc([N+](=O)[O-])c2O)cc1 is 104 % of control

Sure, the documented T/C for COc1ccc(C2C3=C(CC(C)(C)CC3=O)Oc3cc4c(cc32)OCO4)c(OC)c1 (stereo not drawn) is 93 % of control

Sure, the documented T/C for COC(=O)c1cc(-c2ccc(N)cc2)c2c(=O)n(-c3ccccc3)[nH]c2n1 is 91 % of control

Sure, the documented T/C for Cc1ccc2occ3c(=O)n(C)nc-3c2c1 is 91 % of control

Sure, the documented T/C for N#Cc1ccc(OC(=O)Nc2cc(Cl)cc(Cl)c2)cc1 is 106 % of control

Sure, the documented T/C for CSc1nc2c(=O)[nH]cnc2s1 is 102 % of control

Sure, the documented T/C for Nc1nnc(-c2ccc(Cl)cc2)o1 is 110 % of control

Sure, the documented T/C for Cc1nc2ccccc2nc1N1C(=O)c2ccccc2C1=O is 99 % of control

---

- Test system: P388 leukemia ip, CD2F1 mice, survival T/C
- test-protocol: NCI In Vivo Anticancer Drug Screen. Data for tumor model P388 Leukemia (intraperitoneal) in CD2F1 (CDF1) mice
- applied-conditions: endpoint: median survival time; dose: 100.0 mg/kg/injection; schedule: Q01DX001 (ip); vehicle: saline with Tween-80; higher = longer survival
Inconclusive results and toxic doses are left out.
readout: T/C

Some compounds with recorded T/C:
Sure, the documented T/C for O=[N+]([O-])C1C(O)CSCC1O (stereo not drawn) is 104 % of control

Sure, the documented T/C for FC(F)(F)C(F)(F)C(F)(F)c1nnc(-c2ccc(Cl)cc2Cl)o1 is 95 % of control

Sure, the documented T/C for CCCCCCCCCCCCCCCCCC[N+]1(CC)CCSCC1 is 94 % of control

Sure, the documented T/C for CN([NH-])C(=S)[S-].CN([NH-])C(=S)[S-].[Ni] is 120 % of control

Sure, the documented T/C for c1ccc2c3cc(cc2c1)OCCOCCOCCOc1ccc2ccccc2c1-c1c(ccc2ccccc12)OCCOCCOc1ccc2ccccc2c1-3 is 97 % of control

Next:
Sure, the documented T/C for COC(=O)C(Cl)(Cl)C1(c2ccccc2)OCC(C)(C)N1C(=O)C(Cl)Cl (stereo not drawn) is 100 % of control

Sure, the documented T/C for O=Cc1cccc(OC(=O)Oc2cccc(C=O)c2)c1 is 101 % of control

Sure, the documented T/C for c1ccc(-c2nc(-c3ccccn3)cc3ccccc23)cc1 is 91 % of control

Sure, the documented T/C for CCOC(=O)C12CCC(C(=O)OCC)(CC13SCCS3)C1(C2)SCCS1 is 97 % of control

Sure, the documented T/C for CC1=C(O)c2[nH]c(Cl)c(C=O)c2C(=O)C1=O is 100 % of control

Sure, the documented T/C for COc1cccc(-c2c(C#N)c(=O)n(C)c3nncn23)c1 is 97 % of control

Sure, the documented T/C for NNc1nccnc1Cl is 97 % of control

Sure, the documented T/C for Cc1nn(C)c(=O)c2c3ccccc3nn12 is 100 % of control

---

- System: P388 leukemia ip, CD2F1 mice, survival T/C
- test-protocol: NCI In Vivo Anticancer Drug Screen. Data for tumor model P388 Leukemia (intraperitoneal) in CD2F1 (CDF1) mice
- applied-conditions: endpoint: median survival time; dose: 50.0 mg/kg/injection; schedule: Q01DX009 (ip); vehicle: distilled water + Tween-80; higher = longer survival
Inconclusive results and toxic doses are left out.
readout: T/C

The compound Nc1cc(=O)[nH]c(=S)[nH]1.[Pd] , tested on P388 leukemia ip, CD2F1 mice, survival T/C, showed T/C of 100 % of control

The compound c1ccc(-c2c[s+]cs2)cc1 , tested on P388 leukemia ip, CD2F1 mice, survival T/C, showed T/C of 104 % of control

The compound CCOC(=O)c1ccc(NC(=O)Nc2nn[nH]n2)cc1 , tested on P388 leukemia ip, CD2F1 mice, survival T/C, showed T/C of 115 % of control

The compound CC(C)CCCCCCCCCCCCC(=O)NCC(=O)O , tested on P388 leukemia ip, CD2F1 mice, survival T/C, showed T/C of 86 % of control
